Would you mind telling me the reported z-score of each entry?
# assay_summary: A549 lung cancer cell viability effects, profiling panel, resazurin fluorescence, 24 h, PK04 Diversity Set (AID 1171); further: test concentration not given here
# condition_notes: higher = more signal, called active from +8 up or from −8 down
The source made the active and inactive calls.

# molecule `CCN1C(=O)[C@H]2[C@H]3[C@H](O)[C@H](O)CC(=NOCC=C(C)CCC=C(C)C)[C@@H]3CC[C@H]2C1=O` ; its z-score = 0.298 (inactive)

# molecule CCOC(=O)[C@H](Cc1ccccc1)NC(=O)CCC1CC(OC(=O)NCc2cccc3ccccc23)CC2(CCCC(COC(=O)NCCOc3ccccc3)O2)O1 (some centres not stated) ; its z-score = 0.0235 (inactive)

# molecule `CC(CCN1CCCCc2nc(C)c(C)cc21)=NOC[C@@H](O)[C@H]1O[C@@H]2OC(C)(C)O[C@@H]2[C@H]1O` ; its z-score = 0.0214 (inactive)

# molecule `CCCNC(=O)OC[C@H]1O[C@H](CCON=C[C@@H](NS(=O)(=O)c2ccc(C)cc2)[C@H](C)C=CCC(=O)OC)C=C[C@@H]1Oc1ccc(OC)cc1` ; its z-score = 0.141 (inactive)

# molecule `CCOC(=O)CCN1C(=O)[C@H]2[C@H]3[C@H](O)[C@H](O)CC(=NO[C@@H]4O[C@H](CO)[C@@H](O)[C@H](O)[C@H]4O)[C@@H]3CC[C@H]2C1=O` ; its z-score = -0.765 (inactive)

# molecule `C[C@H]1CC[C@H]2C(=O)N[C@H](Cc3ccccc3)C(=O)N2[C@@H]1c1ccccc1` ; its z-score = -0.232 (inactive)

# molecule `COc1ccc(OC[C@@H](CO)OC)cc1` ; its z-score = -0.551 (inactive)

----------
# target_under_test: Torsin-1A-interacting protein 2 (Homo sapiens)
# assay_summary: LULL1 binders on small-molecule microarray, primary screen, cell lysate, human LULL1 lysate, 635/667 nm fluorescence (AID 1092);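 further: probe is lysate of COS7 cells overexpressing human LULL1; score merges per-feature 667 nm fluorescence with signal-to-noise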
# condition_notes: hLULL1 lysate binding, 635 nm fluorescence, higher = more signal
Would you mind telling me the reported composite z-score of each entry?
Respond with the number and no other words.

Measured composite z-score (Torsin-1A-interacting protein 2 (Homo sapiens)), entry `CC(CCN1CCCc2nc(C)c(C)cc21)=NO[C@H](C)c1cn([C@H](CO)Cc2ccccc2)nn1` : 0.894

Measured composite z-score (Torsin-1A-interacting protein 2 (Homo sapiens)), entry `CO[C@@H]1COC(=O)[C@H](CCSC)NC(=O)CC=C[C@@H](C)COC(=O)[C@@H]2CCCN2C(=O)CC=C[C@H]1C` : -0.389

Measured composite z-score (Torsin-1A-interacting protein 2 (Homo sapiens)), entry COCCNC(=O)OCC1CCCC2(CC(OC(=O)NCc3cccc4ccccc34)CC(CCC(=O)N[C@@H](C)C(=O)OC)O2)O1 (some centres undefined) : 1.29

Measured composite z-score (Torsin-1A-interacting protein 2 (Homo sapiens)), entry `O=C(NN=C1C[C@@H](O)[C@@H](O)[C@@H]2[C@@H]3C(=O)N(Cc4ccccc4)C(=O)[C@@H]3CC[C@H]12)OCc1ccccc1` : -0.845

Measured composite z-score (Torsin-1A-interacting protein 2 (Homo sapiens)), entry COC(=O)[C@H](C)NC(=O)CCC1CC(OC(=O)NCCc2ccc(F)cc2)CC2(CCCC(COC(=O)NCc3ccccc3)O2)O1 (some centres undefined) : 1.92

Measured composite z-score (Torsin-1A-interacting protein 2 (Homo sapiens)), entry `CO[C@H]1COC(=O)CCC[C@H](C)[C@H](OC)COC(=O)CC=C[C@@H]1C` : -1.88

Measured composite z-score (Torsin-1A-interacting protein 2 (Homo sapiens)), entry `CC(C)[C@@H](OCc1ccccc1)[C@H](C)C=NO[C@H](C)c1cn([C@@H]2COC[C@H]2O)nn1` : 1.28

Measured composite z-score (Torsin-1A-interacting protein 2 (Homo sapiens)), entry CCOC(=O)[C@H](CC(C)C)NC(=O)CCC1CC(OC(=O)NCc2ccc3c(c2)OCO3)CC2(CCCC(COC(=O)NCCc3ccc(Cl)cc3)O2)O1 (some centres undefined) : 1.39

Measured composite z-score (Torsin-1A-interacting protein 2 (Homo sapiens)), entry `COCOc1ccc(Br)cc1C(=O)C=Cc1ccc2c(c1)OCO2` : -0.57

Measured composite z-score (Torsin-1A-interacting protein 2 (Homo sapiens)), entry COC(=O)[C@H](C)NC(=O)CCC1CC(OC(=O)NCc2ccc3c(c2)OCO3)CC2(CCCC(COC(=O)NCCCN3CCCC3=O)O2)O1 (some centres undefined) : 0.908

Measured composite z-score (Torsin-1A-interacting protein 2 (Homo sapiens)), entry `CCCNC(=O)OC[C@H]1O[C@H](CCON=C2c3cc(OC)ccc3O[C@H](c3cccc(OC)c3)[C@H]2O)C=C[C@@H]1Oc1ccc(OC)cc1` : 0.972

Measured composite z-score (Torsin-1A-interacting protein 2 (Homo sapiens)), entry COC(=O)[C@H](C)NC(=O)CCC1CC(OC(=O)NCc2cccc3ccccc23)CC2(CCCC(COC(=O)NCCCN3CCCC3=O)O2)O1 (some centres undefined) : 1.89

Measured composite z-score (Torsin-1A-interacting protein 2 (Homo sapiens)), entry `O=C1C=C[C@@H](O)[C@@H]2[C@@H]3C(=O)N(C4CCCCC4)C(=O)[C@@H]3CC[C@@H]12` : 0.548

Measured composite z-score (Torsin-1A-interacting protein 2 (Homo sapiens)), entry `C#CCCCON=C1C[C@@H](O)[C@@H](O)[C@@H]2[C@@H]3C(=O)N(CC)C(=O)[C@@H]3CC[C@H]12` : 2.11

Measured composite z-score (Torsin-1A-interacting protein 2 (Homo sapiens)), entry `O=C1C[C@@H](O)[C@@H](O)[C@@H]2[C@@H]3C(=O)N(Cc4ccccc4)C(=O)[C@@H]3CC[C@H]12` : -0.14

Measured composite z-score (Torsin-1A-interacting protein 2 (Homo sapiens)), entry `O=C1[C@H]2[C@H]3[C@H](O)[C@H](O)CC(=NOC[C@@H](O)COCc4ccco4)[C@@H]3CC[C@H]2C(=O)N1C1CCCCC1` : 1.25

Measured composite z-score (Torsin-1A-interacting protein 2 (Homo sapiens)), entry CCOC(=O)[C@H](Cc1ccccc1)NC(=O)CCC1CC(OC(=O)NCc2ccc3c(c2)OCO3)CC2(CCCC(COC(=O)NCCOc3ccccc3)O2)O1 (some centres undefined) : 1.31

Measured composite z-score (Torsin-1A-interacting protein 2 (Homo sapiens)), entry COC(=O)[C@H](C)NC(=O)CCC1CC(OC(=O)NCc2ccc3c(c2)OCO3)CC2(CCCC(COC(=O)NCc3ccccc3)O2)O1 (some centres undefined) : 1.64

Measured composite z-score (Torsin-1A-interacting protein 2 (Homo sapiens)), entry `CCN1C(=O)[C@H]2[C@H]3[C@H](O)[C@H](O)CC(=NOCC[C@@H]4C=C[C@H](OC(C)=O)[C@@H](COC(C)=O)O4)[C@@H]3CC[C@H]2C1=O` : 0.506

Measured composite z-score (Torsin-1A-interacting protein 2 (Homo sapiens)), entry `CC(C)[C@@H](OCc1ccccc1)[C@H](C)C=NOC[C@@H](O)[C@H]1O[C@@H]2OC(C)(C)O[C@@H]2[C@H]1O` : 0.758

Measured composite z-score (Torsin-1A-interacting protein 2 (Homo sapiens)), entry `C#CCCCON=C1[C@H]2CCn3c(=O)n([C@@H](CC)c4ccccc4)c(=O)n3[C@H]2[C@H](O)[C@@H]2O[C@H]12` : 0.883

Measured composite z-score (Torsin-1A-interacting protein 2 (Homo sapiens)), entry `COc1ccc(COC(=O)NN=C2C[C@@H](O)[C@@H](O)[C@@H]3[C@@H]4C(=O)N(Cc5ccccc5)C(=O)[C@@H]4CC[C@@H]23)cc1` : 0.105

Measured composite z-score (Torsin-1A-interacting protein 2 (Homo sapiens)), entry `COC(=O)[C@@H]1CC[C@H](C)[C@@H](c2ccc(Br)cc2)N1C[C@H](O)CN=[N+]=[N-]` : 0.512

Measured composite z-score (Torsin-1A-interacting protein 2 (Homo sapiens)), entry `C#CCCCON=C1[C@H]2CCn3c(=O)n(Cc4cc5c(cc4Cl)OCO5)c(=O)n3[C@H]2[C@H](O)[C@@H]2O[C@H]12` : 0.0322

Measured composite z-score (Torsin-1A-interacting protein 2 (Homo sapiens)), entry `CCCNC(=O)OC[C@H]1O[C@H](CCON=C2C[C@@H](O)[C@@H](O)[C@@H]3[C@@H]4C(=O)N(CC)C(=O)[C@@H]4CC[C@@H]23)C=C[C@@H]1Oc1ccc(OC)cc1` : 1.04

Measured composite z-score (Torsin-1A-interacting protein 2 (Homo sapiens)), entry `COc1ccc(O[C@H]2C=C[C@@H](c3ccccc3)O[C@@H]2COC(=O)CCC(C)=NOC[C@@H](O)COCc2ccco2)cc1` : -1.82

Measured composite z-score (Torsin-1A-interacting protein 2 (Homo sapiens)), entry `COC(=O)CC=C[C@@H](C)[C@@H](C=NOC[C@@H](O)COCc1ccco1)NS(=O)(=O)c1ccc(C)cc1` : -1.12

Measured composite z-score (Torsin-1A-interacting protein 2 (Homo sapiens)), entry CCOC(=O)[C@H](CC(C)C)NC(=O)CCC1CC(OC(=O)NCCc2ccc(F)cc2)CC2(CCCC(COC(=O)NCc3cccc4ccccc34)O2)O1 (some centres undefined) : 2.16

Measured composite z-score (Torsin-1A-interacting protein 2 (Homo sapiens)), entry `COc1ccc(O[C@H]2C=C[C@@H](c3ccccc3)O[C@@H]2COC(=O)NCc2cccc3ccccc23)cc1` : 0.33
